# Tested on: SKG-IIIa;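 further: cell growth inhibition, read out with a cell viability assay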
# METHOD_SUMMARY: cells
# Format: functional, cell-based, Homo sapiens
# STUDY_CONDITIONS: skg-iiia
# Description: SANGER: Inhibition of human SKG-IIIa cell growth in a cell viability assay.
MEASURED_PARAMETER: pIC50
Give only the number. pIC50 is defined as minus log10 of concentration in molar units.

Exam item: # lookup: pIC50 of BLEOMYCIN
Marked response: 3.86

====

# Test system: SK-LMS-1
# METHOD_SUMMARY: cells
# Type: functional, cell-based, Homo sapiens
# STUDY_CONDITIONS: Homo sapiens, SK-LMS-1
# Description: SANGER: Inhibition of human SK-LMS-1 cell growth in a cell viability assay.
pIC50: −log10 of the molar value.
Criterion: pIC50 meeting or surpassing 5. Met: rule met. Not met: rule not met.

A selection of reference data follows.
Oc1ccc2ccccc2c1SSc1c(O)ccc2ccccc12 | rule not met
Nc1ccn([C@@H]2O[C@H](CO)[C@@H](O)C2(F)F)c(=O)n1 [GEMCITABINE] | rule met
Cc1ccc(-c2c(C(=O)CCl)n(CCCO)c3ncnc(N)c23)cc1 | rule met
CCN(CC)CCNC(=O)c1c(C)[nH]c(/C=C2\C(=O)Nc3ccc(F)cc32)c1C [SUNITINIB] | rule met

Exam item: Item CC(C)c1ccccc1Cc1cc(C(=O)Nc2ccc(S(=O)(=O)c3ccccc3C(C)(C)C)cc2)c(O)c(O)c1O with pIC50 of 5 or above?
Marked response: rule met

====

# Test system: SK-LU-1
# METHOD_SUMMARY: cells
# Assay type: functional, cell-based, Homo sapiens
# STUDY_CONDITIONS: Homo sapiens, SK-LU-1
# Description: SANGER: Inhibition of human SK-LU-1 cell growth in a cell viability assay.
MEASURED_PARAMETER: pIC50
Give only the number. pIC50 is defined as minus log10 of concentration in molar units.

Exam item: # lookup: pIC50 of Cc1cc([N+](=O)[O-])ccc1NS(=O)(=O)c1cc(Cl)ccc1Cl
Marked response: 5.49

Exam item: # lookup: pIC50 of O=C(O)c1ccc(-c2c[nH]c3ncc(-c4ccccc4)cc23)cc1C1CCCC1 [GSK-650394]
Marked response: 5.40

Exam item: # lookup: pIC50 of CC(C)c1ccccc1Cc1cc(C(=O)Nc2ccc(S(=O)(=O)c3ccccc3C(C)(C)C)cc2)c(O)c(O)c1O
Marked response: 6.15

====

# Test system: SK-LU-1;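 further: cell viability assay measuring growth inhibition of human SK-LU-1 cells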
# METHOD_SUMMARY: cells
# Assay type: functional, cell-based, Homo sapiens
# STUDY_CONDITIONS: sk-lu-1
MEASURED_PARAMETER: IC50 (µM)
Return type: number; implicit unit µM.

Exam item: # lookup: IC50 of CISPLATIN
Marked response: 7.38

====

Listed below: pIC50 values for each entry.
# System: EW-1;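 further: growth inhibition of the human EW-1 cell line, read out by a cell viability assay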
# METHOD_SUMMARY: cells
# Format: functional, cell-based, Homo sapiens
# STUDY_CONDITIONS: Homo sapiens, EW-1
# Description: SANGER: Inhibition of human EW-1 cell growth in a cell viability assay.
pIC50: −log10 of the molar value. Structures can show the parent of a compound that is named as a salt.

Examples with answers:
Cc1cc([N+](=O)[O-])ccc1NS(=O)(=O)c1cc(Cl)ccc1Cl | 4.81
Cc1cn(-c2cc(NC(=O)c3ccc(C)c(Nc4nccc(-c5cccnc5)n4)c3)cc(C(F)(F)F)c2)cn1 | < 5.70
COc1cccc2c1C(=O)c1c(O)c3c(c(O)c1C2=O)C[C@@](O)(C(=O)CO)C[C@@H]3O[C@H]1C[C@H](N)[C@H](O)[C@H](C)O1 | 7.21

Exam item: # lookup: pIC50 of CCN(CC)CCCCNc1ncc2cc(-c3cc(OC)cc(OC)c3)c(NC(=O)NC(C)(C)C)nc2n1
Marked response: < 5.70

Exam item: # lookup: pIC50 of CO[C@H]1C[C@@H]2CC[C@@H](C)[C@@](O)(O2)C(=O)C(=O)N2CCCC[C@H]2C(=O)O[C@H]([C@H](C)C[C@@H]2CC[C@@H](OC(=O)C(C)(CO)CO)[C@H](OC)C2)CC(=O)[C@H](C)/C=C(\C)[C@@H](O)[C@@H](OC)C(=O)[C@H](C)C[C@H](C)/C=C/C=C/C=C/1C
Marked response: < 6.70

Exam item: # lookup: pIC50 of COC1=CC(c2cc3ccccc3[nH]2)=N/C1=C\c1[nH]c(C)cc1C [OBATOCLAX MESYLATE]
Marked response: > 7.20

Exam item: # lookup: pIC50 of COc1cc2c(Nc3ccc(NC(=O)c4ccccc4)cc3)ncnc2cc1OCCCN1CCOCC1
Marked response: < 5.40

Exam item: # lookup: pIC50 of Cn1cnc2c(F)c(Nc3ccc(Br)cc3Cl)c(C(=O)NOCCO)cc21
Marked response: < 5.40

Exam item: # lookup: pIC50 of N[C@@H](CSC(c1ccccc1)(c1ccccc1)c1ccccc1)C(=O)O
Marked response: 5.82
